Tested on: DU-145
Assay: Antiproliferative activity against human DU145 cells measured after 72 hrs by EZ-Cytox assay
Format: functional, cell-based
Conditions: DU-145, 72 h
A collection of compounds and their measured log10 of IC50
In plain terms, each number is the log10 of measured IC50 in µM.

smiles_notation	target_or_test_system	log10 of IC50
Oc1ccc(-c2cc(-c3ccccc3)nc3c2Cc2cc(O)ccc2-3)cc1	DU-145	0.39
Oc1ccc2c(c1)-c1nc(-c3ccccc3Cl)cc(-c3ccccc3O)c1C2	DU-145	-0.11
Oc1cccc(-c2cc(-c3cccc(Cl)c3)c3c(n2)-c2c(O)cccc2C3)c1	DU-145	1.23

Observed log10 of IC50 on DU-145 for Oc1ccc2c(c1)-c1nc(-c3ccc(F)cc3)cc(-c3ccccc3O)c1C2 , please.
0.54

Observed log10 of IC50 on DU-145 for Oc1ccc(-c2cc(-c3ccccc3)c3c(n2)-c2c(O)cccc2C3)cc1 , please.
-0.18

Observed log10 of IC50 on DU-145 for Oc1ccc(-c2cc(-c3cccc(Cl)c3)nc3c2Cc2ccc(O)cc2-3)cc1 , please.
-0.32

Observed log10 of IC50 on DU-145 for Oc1cccc(-c2cc(-c3ccc(Cl)cc3)nc3c2Cc2c(O)cccc2-3)c1 , please.
0.31

Observed log10 of IC50 on DU-145 for Oc1ccc2c(c1)-c1nc(-c3ccc(Cl)cc3)cc(-c3ccccc3O)c1C2 , please.
-0.31

Observed log10 of IC50 on DU-145 for Oc1cccc(-c2cc(-c3ccccc3)nc3c2Cc2c(O)cccc2-3)c1 , please.
-0.72
